Origin of the recorded values: ChEMBL document CHEMBL1275477

Tested on: Staphylococcus aureus
Experiment: Antibacterial activity against methicillin-resistant Staphylococcus aureus by broth microdilution method
Type: functional
MEASUREMENT LABEL: MIC50 (µg/mL)
Give the quantity in µg/mL, number only.

Worked set:
{"MOLECULE": "O=C(O)c1cn(C2CC2)c2cc(N3CCNCC3)c(F)cc2c1=O", "MEASURED NUMBER": 0.25}
{"MOLECULE": "C[C@@H]1CN2c3ccc([N+](=O)[O-])cc3CC3(C(=O)NC(=O)NC3=O)[C@H]2[C@H](C)O1", "MEASURED NUMBER": 0.5}

Continue with the next molecule.
query: Dear colleague, I am looking for the recorded MIC50 of the following molecule: CC1CN2c3ccc([N+](=O)[O-])cc3CC3(C(=O)NC(=O)NC3=O)C2C(C)O1 (racemic)
result: 1
